- experimental target: human GlyT1c transporter (Homo sapiens (Human), UniProt P48067)
- experimental details: Radioligand binding assay using recombinant CHO cell membranes expressing human GlyT1
- study conditions: human GlyT1c-expressing CHO cell membranes; read-out: radioligand binding Kiapp
pKi: −log10 of the molar value. Where a name gives a salt, the structure may show the parent alone.
pKi for assorted molecules

Observe how each entry below is paired with its result.
NC1CCc2ccc(OCCNS(=O)(=O)CCC3CC3)cc2C1Cc1ccc(Cl)c(Cl)c1 (stereo not drawn) [Example 125, hydrochloride] : ≥ 6.00
CCCS(=O)(=O)N(C)CCOc1ccc2c(c1)C(Cc1cccc(Cl)c1)C(N)CC2 (stereo not drawn) [Example 79, hydrochloride] : ≥ 7.00

Now look at this one.
Req: Request - read-out pKi | tested on human GlyT1c transporter (Homo sapiens (Human), UniProt P48067) | molecule CCCS(=O)(=O)NCCCc1ccc2c(c1)C(Cc1cccc(Cl)c1)C(NC)CC2 (stereo not drawn) [Example 308, hydrochloride]
Resp: ≥ 8.00

====

- experimental target: human GlyT1c transporter (Homo sapiens (Human), UniProt P48067)
- experimental details: Radioligand binding assay using recombinant CHO cell membranes expressing human GlyT1
- study conditions: human GlyT1c-expressing CHO cell membranes; read-out: radioligand binding Kiapp
pKi: −log10 of the molar value. Counter-ions that a name gives are not always drawn.
We begin with a simple list: items and their reported pKi.

// below: answered compounds
CCCS(=O)(=O)NCCCc1ccc2c(c1)C(Cc1ccc(Cl)c(Cl)c1)C(NC(C)C)CC2 (stereo not shown) [Example 272] : ≥ 7.00
Cn1cnc(S(=O)(=O)NCCOc2ccc3c(c2)C(Cc2cccc(Cl)c2)C(N2CCC2)CC3)c1 (stereo not shown) [Example 321, hydrochloride] : ≥ 8.00
CCOC(=O)NC1CCc2ccc(OCCNS(=O)(=O)c3cnn(C(F)F)c3)cc2C1Cc1cccc(Cl)c1 (stereo not shown) [Example 81] : ≥ 5.00
CCCS(=O)(=O)NCCOc1ccc2c(c1)C(Cc1ccccc1F)C(NC)CC2 (stereo not shown) [Example 311, hydrochloride] : ≥ 7.00

Req: What pKi value was documented for this compound, NC1CCc2ccc(CNS(=O)(=O)c3cccnc3)cc2C1Cc1ccccc1 (stereo not shown) [Example 181, dihydrochloride] ?
Resp: ≥ 7.00

Req: Here is the next compound: CCCS(=O)(=O)NCCCc1ccc2c(c1)C(Cc1cccc(F)c1)C(NC(C)=O)CC2 (stereo not shown) [Example 214]
Resp: ≥ 5.00

Req: Query Cn1cnc(S(=O)(=O)NCc2ccc3c(c2)C(Cc2ccccc2)C(N2CCC2)CC3)c1 (stereo not shown) [Example 248] next
Resp: ≥ 8.00

Req: CNC1CCc2ccc(OCCNS(=O)(=O)CC3CC3)cc2C1Cc1ccccc1F (stereo not shown) [Example 312, hydrochloride] ?
Resp: ≥ 7.00

Req: Proceed to Cn1cnc(S(=O)(=O)NCc2ccc3c(c2)C(Cc2ccccc2)C(N)CC3)c1 (stereo not shown) [Example 173, hydrochloride]
Resp: ≥ 8.00

Req: Please do the same for Cc1cccc(S(=O)(=O)NCc2ccc3c(c2)C(Cc2ccccc2)C(N)CC3)c1 (stereo not shown) [Example 179, hydrochloride] as well.
Resp: ≥ 6.00

Req: What would you report for CNC1CCc2ccc(OCCNS(=O)(=O)CC3CC3)cc2C1Cc1cccc(Cl)c1 (stereo not shown) [Example 300, hydrochloride] ?
Resp: ≥ 8.00

Req: Another compound to check: CCCS(=O)(=O)N1CC(c2ccc3c(c2)C(Cc2cccc(Cl)c2)C(N)CC3)C1 (stereo not shown) [Example 283, hydrochloride]
Resp: ≥ 6.00

Req: Also need Cn1cnc(S(=O)(=O)NCCOc2ccc3c(c2)C(Cc2ccccc2)C(N2CCC2)CC3)c1 (stereo not shown) [Example 145] , thanks.
Resp: ≥ 8.00

Req: Next: CC(C)S(=O)(=O)NCCOc1ccc2c(c1)C(Cc1ccc(Cl)c(Cl)c1)C(N)CC2 (stereo not shown) [Example 91, hydrochloride]
Resp: ≥ 7.00

Req: Moving on to CC(C)NC1CCc2ccc(OCCNS(=O)(=O)CC3CC3)cc2C1Cc1cccc(C#N)c1 (stereo not shown) [Example 156, hydrochloride]
Resp: ≥ 6.00

====

Ki values by entry
- experimental target: human GlyT1c transporter (Homo sapiens (Human), UniProt P48067)
- experimental details: Radioligand binding assay using recombinant CHO cell membranes expressing human GlyT1
- study conditions: human GlyT1c-expressing CHO cell membranes; read-out: radioligand binding Kiapp
- Text: 2. Radioligand binding assays using recombinant CHO cell membranes expressing human GlyT1: […]
Counter-ions that a name gives are not always drawn.

CCOC(=O)NC1CCc2ccc(OCCNS(=O)(=O)c3ccc(C)s3)cc2C1Cc1ccc(Cl)cc1Cl (stereo not shown) : ≤ 10 µM
CCCS(=O)(=O)N(C)CCOc1ccc2c(c1)C(Cc1ccc(Cl)cc1)C(N)CC2 (stereo not shown) [Example 77, hydrochloride] : ≤ 0.1 µM
NC1CCc2ccc(OCCNS(=O)(=O)c3ccccc3)cc2C1Cc1ccccc1 (stereo not shown) [Example 99, hydrochloride] : ≤ 0.1 µM

# context switch: different molecule, same Ki
Req: Item under review: CCOC(=O)NC1CCc2ccc(OCCNS(=O)(=O)c3cnn(C)c3)cc2C1Cc1cccc(Cl)c1 (stereo not shown) . Reported Ki?
Resp: ≤ 1 µM

====

- experimental target: human GlyT1c transporter (Homo sapiens (Human))
- experimental details: Radioligand binding assay using recombinant CHO cell membranes expressing human GlyT1
- study conditions: human GlyT1c-expressing CHO cell membranes; read-out: radioligand binding Kiapp
Counter-ions that a name gives are not always drawn.
The entries below come with measured Ki values attached.

Req: Dear colleague, I am looking for the recorded Ki of the following molecule: CC(=O)NC1CCc2ccc(CCCNS(=O)(=O)CC3CC3)cc2C1Cc1cccc(F)c1 (stereo not shown) [Example 218]
Resp: ≤ 10000 nM

Req: Entry CCCS(=O)(=O)NCCOc1ccc2c(c1)C(Cc1ccc(F)c(Cl)c1)C(N)CC2 (stereo not shown) [Example 120, hydrochloride] please
Resp: ≤ 100 nM

Req: Same question, CCOC(=O)NC1CCc2ccc(OCCNS(=O)(=O)c3cc(C)cs3)cc2C1Cc1ccc(Cl)c(Cl)c1 (stereo not shown) [Example 21] this time
Resp: ≤ 100000 nM

Req: // query: NC1CCc2ccc(CCCNS(=O)(=O)CC3CC3)cc2C1Cc1ccccc1 (stereo not shown) [Example 207, trifluoroacetate]
Resp: ≤ 100 nM

Req: Try the molecule CN(CCCc1ccc2c(c1)C(Cc1ccc(Cl)cc1)C(N)CC2)S(=O)(=O)CC1CC1 (stereo not shown) [Example 233, hydrochloride]
Resp: ≤ 100 nM

Req: Follow-up entry: CCCS(=O)(=O)NCCOc1ccc2c(c1)C(Cc1ccccc1)C(N1CCC1)CC2 (stereo not shown) [Example 148]
Resp: ≤ 100 nM

Req: Here is the next molecule: Cn1cnc(S(=O)(=O)NCc2ccc3c(c2)C(Cc2cccc(F)c2)C(N)CC3)c1 (stereo not shown) [Example 177, hydrochloride]
Resp: ≤ 10 nM

====

- experimental target: human GlyT1c transporter (Homo sapiens (Human), UniProt P48067)
- experimental details: Radioligand binding assay using recombinant CHO cell membranes expressing human GlyT1
- study conditions: human GlyT1c-expressing CHO cell membranes; read-out: radioligand binding Kiapp
pKi: −log10 of the molar value. Structures can show the parent of a compound that is named as a salt.
observable: pKi

CCNC1CCc2ccc(CNS(=O)(=O)c3cn(C)cn3)cc2C1Cc1ccc(F)cc1 (centres unmarked) [Example 199, hydrochloride] : ≥ 7.00
Cn1cnc(S(=O)(=O)NCCOc2ccc3c(c2)C(Cc2cc(F)cc(Cl)c2)C(N)CC3)c1 (centres unmarked) [Example 151, hydrochloride] : ≥ 8.00
CCN(CCOc1ccc2c(c1)C(Cc1ccccc1)C(N1CCCC1)CC2)S(=O)(=O)c1cnn(C)c1 (centres unmarked) [Example 124, hydrochloride] : ≥ 6.00
NC1CCc2ccc(O)cc2C1Cc1ccc(Cl)c(Cl)c1 (centres unmarked) [Example 35, trifluoroacetate] : ≤ 4.00

Here is another molecule to look at.
Req: Look up pKi: Cn1cnc(S(=O)(=O)NCCOc2ccc3c(c2)C(Cc2cccc(C#N)c2)C(N2CCCC2)CC3)c1 (centres unmarked)
Resp: ≥ 7.00

====

We begin with a simple list: items and their reported IC50.
- experimental target: human GlyT1c (Homo sapiens (Human), UniProt P48067)
- Sequence (P48067 whole entry): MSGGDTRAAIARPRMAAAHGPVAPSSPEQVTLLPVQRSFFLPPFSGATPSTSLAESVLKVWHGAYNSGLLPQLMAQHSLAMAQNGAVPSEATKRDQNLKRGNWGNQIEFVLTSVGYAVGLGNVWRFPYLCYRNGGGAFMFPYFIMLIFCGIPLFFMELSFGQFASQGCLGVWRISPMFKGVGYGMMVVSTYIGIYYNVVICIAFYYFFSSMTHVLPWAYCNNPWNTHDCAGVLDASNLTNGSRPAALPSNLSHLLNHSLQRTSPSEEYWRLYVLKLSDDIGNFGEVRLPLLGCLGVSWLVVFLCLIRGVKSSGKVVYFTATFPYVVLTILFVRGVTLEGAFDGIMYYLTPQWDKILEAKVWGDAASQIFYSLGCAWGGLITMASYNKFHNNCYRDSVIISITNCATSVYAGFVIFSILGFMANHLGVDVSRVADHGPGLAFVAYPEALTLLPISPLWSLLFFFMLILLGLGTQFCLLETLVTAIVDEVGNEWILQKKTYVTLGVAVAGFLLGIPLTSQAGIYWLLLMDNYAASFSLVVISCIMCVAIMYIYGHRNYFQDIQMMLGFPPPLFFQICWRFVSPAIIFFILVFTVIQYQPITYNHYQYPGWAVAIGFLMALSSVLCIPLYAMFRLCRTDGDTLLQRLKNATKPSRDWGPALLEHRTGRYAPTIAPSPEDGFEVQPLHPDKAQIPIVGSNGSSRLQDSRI
- experimental details: [3H]-Glycine uptake into recombinant CHO cells expressing human GlyT1
- Assay type: cell-based
- study conditions: hGlyT1c_5_CHO cells, 200 nM [3H]-glycine
Where a name gives a salt, the structure may show the parent alone.

Req: Need IC50 of CCOC(=O)NC1CCc2ccc(OCCNS(=O)(=O)CCCF)cc2C1Cc1ccc(Cl)c(Cl)c1 (stereo not shown) [Example 22] , thanks.
Resp: ≤ 1000 µM

Req: Subsequent entry: Cc1ncc(S(=O)(=O)NCCOc2ccc3c(c2)C(Cc2cccc(Cl)c2)C(N)CC3)[nH]1 (stereo not shown) [Example 58]
Resp: ≤ 10 µM

Req: Same question, CCOC(=O)NC1CCc2ccc(OCCNS(=O)(=O)c3cnn(C)c3)cc2C1Cc1ccc(Cl)c(Cl)c1 (stereo not shown) [Example 9] this time
Resp: ≤ 1 µM

Req: Then what about the compound Cc1ccc(S(=O)(=O)NCCOc2ccc3c(c2)C(Cc2ccc(Cl)cc2Cl)C(N)CC3)s1 (stereo not shown) [Example 73, hydrochloride] ?
Resp: ≤ 10 µM

Req: And then Cn1cnc(S(=O)(=O)NCCOc2ccc3c(c2)C(Cc2ccc(Cl)cc2)C(N)CC3)c1 (stereo not shown) [Example 27, hydrochloride] , what is it?
Resp: ≤ 0.01 µM

Req: // same read-out, input: Cc1ccc(S(=O)(=O)NCCOc2ccc3c(c2)C(Cc2cccc(Cl)c2)C(N)CC3)s1 (stereo not shown) [Example 68, hydrochloride]
Resp: ≤ 10 µM

Req: What about this compound? NC1CCc2ccc(O)cc2C1Cc1ccc(Cl)c(Cl)c1 (stereo not shown) [Example 35, trifluoroacetate]
Resp: ≤ 100 µM
